biological target: CDK2 (Homo sapiens, UniProt P24941); assay: SPR
pKd: −log10 of the molar value.
VALUE KIND: pKd

# BINDER, VALUE KIND, RESULT VALUE
measured = [
    ("LAALS (60 uM ATP) [LAALS peptide]", "pKd", 4.21),
]

Source of measurements: paper PMC4188581
